Molecular target: recombinant PRL-3 (Homo sapiens, UniProt O75365)
Construct: 6xHis (N, cleaved yes); made in house; host or cells: E. coli One Shot BL21 Star
Sequence (O75365 whole entry): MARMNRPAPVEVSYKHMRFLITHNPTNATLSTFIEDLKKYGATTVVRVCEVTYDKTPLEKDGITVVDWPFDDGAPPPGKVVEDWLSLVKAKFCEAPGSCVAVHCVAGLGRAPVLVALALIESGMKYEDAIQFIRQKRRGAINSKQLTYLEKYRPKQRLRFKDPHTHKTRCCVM
Assay: In vitro phosphatase assay (DiFMUP hydrolysis), PRL-3; also: test concentration or dose not given here
Type: biochemical
Conditions: FDA-approved drug screen; compared to DMSO
Structures can show the parent of a compound that is named as a salt.
recorded-endpoint: % Phosphatase Activity (compared to DMSO) PRL-3 (%)
Numeric only. Scale: %

Task: Can you share its % Phosphatase Activity (compared to DMSO) PRL-3? I mean this compound: C#CCC(Cc1cnc2nc(N)nc(N)c2n1)c1ccc(C(=O)N[C@@H](CCC(=O)O)C(=O)O)cc1 (stereo partly drawn) [Pralatrexate]
Result: 875

Task: Can you share its % Phosphatase Activity (compared to DMSO) PRL-3? I mean this compound: OC(c1ccccc1)(c1ccccc1)C1CCNCC1
Result: 96

Task: Can you share its % Phosphatase Activity (compared to DMSO) PRL-3? I mean this compound: COC(=O)[C@H]1[C@H]2C[C@@H]3c4[nH]c5cc(OC)ccc5c4CCN3C[C@H]2C[C@@H](OC(=O)c2cc(OC)c(OC)c(OC)c2)[C@@H]1OC
Result: 92

Task: Can you share its % Phosphatase Activity (compared to DMSO) PRL-3? I mean this compound: Cl.N=C(N=C(N)N)N1CCOCC1 [Moroxydine HCl]
Result: 79

Task: Can you share its % Phosphatase Activity (compared to DMSO) PRL-3? I mean this compound: CC(C)(CO)C(O)C(=O)NCCCO (racemic)
Result: 82

Task: Can you share its % Phosphatase Activity (compared to DMSO) PRL-3? I mean this compound: Cc1ccc(C(=O)N(CCCN)[C@@H](c2nc3cc(Cl)ccc3c(=O)n2Cc2ccccc2)C(C)C)cc1 [Ispinesib (SB-715992)]
Result: 80

Task: Can you share its % Phosphatase Activity (compared to DMSO) PRL-3? I mean this compound: CCN(CC)CCOCCOC(=O)C(CC)(CC)c1ccccc1.O=C(O)CC(O)(CC(=O)O)C(=O)O [Oxeladin Citrate]
Result: 89

Task: Can you share its % Phosphatase Activity (compared to DMSO) PRL-3? I mean this compound: CNCc1ccc(-c2[nH]c3cc(F)cc4c3c2CCNC4=O)cc1
Result: 2134

Task: Can you share its % Phosphatase Activity (compared to DMSO) PRL-3? I mean this compound: CN1CCCC(n2nc(Cc3ccc(Cl)cc3)c3ccccc3c2=O)CC1 (stereo not drawn) [Azelastine HCl]
Result: 87

Task: Can you share its % Phosphatase Activity (compared to DMSO) PRL-3? I mean this compound: CC1(C)O[C@@H]2C[C@H]3[C@@H]4CCC5=CC(=O)CC[C@]5(C)[C@@]4(F)[C@@H](O)C[C@]3(C)[C@]2(C(=O)CCl)O1 [Halcinonide]
Result: 93

Task: Can you share its % Phosphatase Activity (compared to DMSO) PRL-3? I mean this compound: CCOc1nc2cccc(C(=O)O)c2n1Cc1ccc(-c2ccccc2-c2nnn[nH]2)cc1
Result: 82

Task: Can you share its % Phosphatase Activity (compared to DMSO) PRL-3? I mean this compound: CN(C)[C@@H](CCOc1cccc2ccccc12)c1ccccc1 [Dapoxetine HCl]
Result: 111

Task: Can you share its % Phosphatase Activity (compared to DMSO) PRL-3? I mean this compound: O=C(O)C[C@H](O)C[C@H](O)/C=C/c1c(C2CC2)nc2ccccc2c1-c1ccc(F)cc1
Result: 92

Task: Can you share its % Phosphatase Activity (compared to DMSO) PRL-3? I mean this compound: CN[C@H]1C[C@@H](N)[C@H](O)[C@@H](O[C@@H]2O[C@H](CO)[C@H](O)[C@@H]3OC4(O[C@H]23)O[C@H]([C@@H](N)CO)[C@H](O)[C@H](O)[C@H]4O)[C@@H]1O (stereo partly drawn)
Result: 103

Task: Can you share its % Phosphatase Activity (compared to DMSO) PRL-3? I mean this compound: COc1cc2ncnc(Nc3ccc(F)c(Cl)c3)c2cc1NC(=O)/C=C/CN1CCCCC1
Result: 120

Task: Can you share its % Phosphatase Activity (compared to DMSO) PRL-3? I mean this compound: Nc1nc(F)nc2c1ncn2[C@@H]1O[C@H](COP(=O)(O)O)[C@@H](O)[C@@H]1O [Fludarabine Phosphate]
Result: 70

Task: Can you share its % Phosphatase Activity (compared to DMSO) PRL-3? I mean this compound: Cc1cn([C@H]2O[C@@H](CO)[C@H](O)[C@H]2F)c(=O)[nH]c1=O
Result: 89

Task: Can you share its % Phosphatase Activity (compared to DMSO) PRL-3? I mean this compound: Cc1cc(C2CCCCC2)n(O)c(=O)c1.NCCO
Result: 83

Task: Can you share its % Phosphatase Activity (compared to DMSO) PRL-3? I mean this compound: COc1ccc2c(c1)c(CC(=O)OCC(=O)O)c(C)n2C(=O)c1ccc(Cl)cc1
Result: 94

Task: Can you share its % Phosphatase Activity (compared to DMSO) PRL-3? I mean this compound: CCC(=O)NCC[C@@H]1CCc2ccc3c(c21)CCO3
Result: 73

Task: Can you share its % Phosphatase Activity (compared to DMSO) PRL-3? I mean this compound: CNC(=O)c1ccc(Nc2ncc(C(F)(F)F)c(NCc3nccnc3N(C)S(C)(=O)=O)n2)cc1
Result: 89

Task: Can you share its % Phosphatase Activity (compared to DMSO) PRL-3? I mean this compound: C=CC(=O)Nc1cccc(Oc2nc(Nc3ccc(N4CCN(C)CC4)cc3)nc3ccsc23)c1
Result: 94

Task: Can you share its % Phosphatase Activity (compared to DMSO) PRL-3? I mean this compound: OC[C@@H](O)[C@@H](O)[C@H](O)[C@H](O)CO
Result: 104

Task: Can you share its % Phosphatase Activity (compared to DMSO) PRL-3? I mean this compound: CNCCc1ccccn1.Cl.Cl [Betahistine 2HCl]
Result: 87

Task: Can you share its % Phosphatase Activity (compared to DMSO) PRL-3? I mean this compound: C[C@@H](O)[C@H]1C(=O)N2C(C(=O)O)=C(S[C@@H]3CN[C@H](CNS(N)(=O)=O)C3)[C@H](C)[C@H]12.O [Doripenem Hydrate]
Result: 69

Task: Can you share its % Phosphatase Activity (compared to DMSO) PRL-3? I mean this compound: CC(=O)N1CCN(c2ccc(OCC3COC(Cn4ccnc4)(c4ccc(Cl)cc4Cl)O3)cc2)CC1 (stereo not drawn)
Result: 75

Task: Can you share its % Phosphatase Activity (compared to DMSO) PRL-3? I mean this compound: CCC1(c2cnc[nH]2)Cc2ccccc2C1.Cl [Atipamezole hydrochloride]
Result: 88

Task: Can you share its % Phosphatase Activity (compared to DMSO) PRL-3? I mean this compound: C[N+](C)(CCOc1ccccc1)Cc1ccccc1.O=C([O-])c1cc2ccccc2cc1O [Bephenium Hydroxynaphthoate]
Result: 92

Task: Can you share its % Phosphatase Activity (compared to DMSO) PRL-3? I mean this compound: COC(=O)[C@@H]1CC2=CC(=O)CC[C@]2(C)[C@@]23O[C@@H]2C[C@@]2(C)[C@@H](CC[C@@]24CCC(=O)O4)[C@H]13
Result: 81

Task: Can you share its % Phosphatase Activity (compared to DMSO) PRL-3? I mean this compound: CN(CCOc1ccc(CC2SC(=O)NC2=O)cc1)c1ccccn1 (stereo not drawn) [Rosiglitazone]
Result: 79

---

Molecular target: recombinant PRL-3 (Homo sapiens)
Construct: 6xHis (N, cleaved yes); made in house; host or cells: E. coli One Shot BL21 Star
Test: In vitro phosphatase assay (DiFMUP hydrolysis), PRL-3; also: test concentration or dose not given here
Type: biochemical
Settings: FDA-approved drug screen; compared to DMSO
Where a name gives a salt, the structure may show the parent alone.
recorded-endpoint: % Phosphatase Activity (compared to DMSO) PRL-3 (%)
Numeric only. Scale: %

Task: Can you share its % Phosphatase Activity (compared to DMSO) PRL-3? I mean this compound: CC1(C)OC(=O)NC1=O
Result: 82

Task: Can you share its % Phosphatase Activity (compared to DMSO) PRL-3? I mean this compound: CN(C)c1ccc(O)c2c1C[C@H]1C[C@H]3[C@H](N(C)C)C(O)=C(C(N)=O)C(=O)[C@@]3(O)C(O)=C1C2=O [Minocycline HCl]
Result: 104

Task: Can you share its % Phosphatase Activity (compared to DMSO) PRL-3? I mean this compound: CC[C@H]1OC(=O)[C@H](C)[C@@H](O[C@H]2C[C@@](C)(OC)[C@@H](O)[C@H](C)O2)[C@H](C)[C@@H](O[C@@H]2O[C@H](C)C[C@H](N(C)C)[C@H]2O)[C@](C)(O)C[C@@H](C)CN(C)[C@H](C)[C@@H](O)[C@]1(C)O [Azithromycin Dihydrate]
Result: 73

Task: Can you share its % Phosphatase Activity (compared to DMSO) PRL-3? I mean this compound: COc1cccc2c1C(=O)c1c(O)c3c(c(O)c1C2=O)C[C@@](O)(C(C)=O)C[C@@H]3O[C@H]1C[C@H](N)[C@H](O)[C@H](C)O1 [Daunorubicin HCl]
Result: 82

Task: Can you share its % Phosphatase Activity (compared to DMSO) PRL-3? I mean this compound: COC(=O)N[C@H](C(=O)N1CCC[C@H]1c1ncc(-c2ccc(-c3ccc(-c4cnc([C@@H]5CCCN5C(=O)[C@@H](NC(=O)OC)C(C)C)[nH]4)cc3)cc2)[nH]1)C(C)C
Result: 236
